Test system: Klebsiella Oxytoca
protocolText: Minimum Inhibitory Concentration (MIC), agar dilution in Mueller Hinton Agar
Format: cell-based
experimentalSetup: 20 h, culture number 9383
measurementName: MIC (µg/mL)

> print(dat)
                                   compound  recordedvalue
1  Cn1c(-c2cc(=O)c(O)c[nH]2)nn(S(=O)(=O)NC(=O)N2C[C@H](NC(=O)/C(=N\OC(C)(C)C(=O)O)c3csc(N)n3)C2=O)c1=O           0.03

[I] Nc1nc(C(=NOCC(=O)O)C(=O)NC2CN(C(=O)NS(=O)(=O)N3CC(CNC(=O)c4cc(=O)c(O)c[nH]4)OC3=O)C2=O)cs1 (stereo not shown)
[II] CC(C)(O/N=C(\C(=O)N[C@H]1CN(C(=O)NS(=O)(=O)N2CCN(NC(=O)c3cccc(=O)n3O)C2=O)C1=O)c1csc(N)n1)C(=O)O
Lab note: record which item had the higher MIC, I or II . Give the label of your selection.
II
(II: 8 µg/mL, I: 4 µg/mL)

[a] Nc1nc(/C(=N/OCC(=O)O)C(=O)N[C@H]2CN(C(=O)NS(=O)(=O)N3CCN(C(=O)c4cc(=O)c(O)c[nH]4)CC3)C2=O)cs1
[b] CC(C)(O/N=C(\C(=O)N[C@H]1CN(C(=O)NS(=O)(=O)N2CCN(NC(=O)c3cc(=O)c(O)cn3C3CC3)C2=O)C1=O)c1csc(N)n1)C(=O)O
[c] CC(C)(O/N=C(\C(=O)N[C@H]1CN(C(=O)NS(=O)(=O)N2CCN(C(=O)c3cc(=O)c(O)c[nH]3)NC2=O)C1=O)c1csc(N)n1)C(=O)O
[d] CC(C)(O/N=C(\C(=O)N[C@H]1CN(C(=O)NS(=O)(=O)N2CCN(C(=O)c3cc(=O)c(O)c[nH]3)CC2=O)C1=O)c1csc(N)n1)C(=O)O
Given 4 compounds, produce a descending ranking by MIC. List each label, following the requested order.
a, b, d, c
(a: 64 µg/mL, b: 1 µg/mL, d: 0.5 µg/mL, c: 0.125 µg/mL)

[a] CC(C)(ON=C(C(=O)NC1CN(C(=O)NS(=O)(=O)N2CC(CNC(=O)c3cc(=O)c(O)c[nH]3)OC2=O)C1=O)c1csc(N)n1)C(=O)O (stereo not shown)
[b] Nc1nc(/C(=N/OCC(=O)O)C(=O)N[C@H]2CN(C(=O)NS(=O)(=O)N3CCN(NC(=O)c4[nH]ccc(=O)c4O)C3=O)C2=O)cs1
Lab note: record which item had the higher MIC, a or b . Give the label of your selection.
a

[a] CC(C)(O/N=C(\C(=O)N[C@H]1CN(C(=O)NS(=O)(=O)N2CCN(NC(=O)c3ccn(O)c(=O)c3)C2=O)C1=O)c1csc(N)n1)C(=O)O
[b] Cn1cc(O)c(=O)cc1C(=O)NN1CCN(S(=O)(=O)NC(=O)N2C[C@H](NC(=O)/C(=N\OC(C)(C)C(=O)O)c3csc(N)n3)C2=O)C1=O
Hi! Which is lower in terms of MIC, the first one a or the second one b ? Give the label of your selection.
b
(b: 1 µg/mL, a: 4 µg/mL)

[A] CC(C)(O/N=C(\C(=O)N[C@H]1CN(C(=O)NS(=O)(=O)n2nc(-c3cc(=O)c(O)c[nH]3)[nH]c2=O)C1=O)c1csc(N)n1)C(=O)O
[B] CCCCn1cc(O)c(=O)cc1C(=O)NN1CCN(S(=O)(=O)NC(=O)N2C[C@H](NC(=O)/C(=N\OC(C)(C)C(=O)O)c3csc(N)n3)C2=O)C1=O
Lab note: record which item had the higher MIC, A or B . Give the label of your selection.
B
(B: 4 µg/mL, A: 0.03 µg/mL)

---

Read-out record for Klebsiella Pneumoniae: MIC
measurementName: MIC (µg/mL)

Guide cases for MIC, answers given:
compound	uom	recordedValue
Nc1nc(C(=NOCC(=O)O)C(=O)NC2CN(C(=O)NS(=O)(=O)N3CC(CNC(=O)c4cc(=O)c(O)c[nH]4)OC3=O)C2=O)cs1 (stereo not shown) [E27 (a)]	µg/mL	0.5
CC(C)(O/N=C(\C(=O)N[C@H]1CN(C(=O)NS(=O)(=O)N2CCN(NC(=O)c3cccc(=O)n3O)C2=O)C1=O)c1csc(N)n1)C(=O)O [E42 (c)]	µg/mL	0.5
Nc1nc(/C(=N/OCC(=O)O)C(=O)N[C@H]2CN(C(=O)NS(=O)(=O)N3CCN(NC(=O)c4[nH]ccc(=O)c4O)C3=O)C2=O)cs1 [Compound E40]	µg/mL	0.5
CC(C)(ON=C(C(=O)NC1CN(C(=O)NS(=O)(=O)N2CC(CNC(=O)c3cc(=O)c(O)c[nH]3)OC2=O)C1=O)c1csc(N)n1)C(=O)O (stereo not shown) [E27 (b)]	µg/mL	2
CC(C)(O/N=C(\C(=O)N[C@H]1CN(C(=O)NS(=O)(=O)N2CCN(NC(=O)c3cc(=O)c(O)cn3C3CC3)C2=O)C1=O)c1csc(N)n1)C(=O)O [Compound E42]	µg/mL	2
CC(C)(O/N=C(\C(=O)N[C@H]1CN(C(=O)NS(=O)(=O)N2CCN(NC(=O)c3ccn(O)c(=O)c3)C2=O)C1=O)c1csc(N)n1)C(=O)O [E42 (d)]	µg/mL	0.25
CC(C)(O/N=C(\C(=O)N[C@H]1CN(C(=O)NS(=O)(=O)n2nc(-c3cc(=O)c(O)c[nH]3)[nH]c2=O)C1=O)c1csc(N)n1)C(=O)O [E23 (a)]	µg/mL	0.25
Nc1nc(/C(=N/OCC(=O)O)C(=O)N[C@H]2CN(C(=O)NS(=O)(=O)N3CCN(C(=O)c4cc(=O)c(O)c[nH]4)CC3)C2=O)cs1 [Compound E19]	µg/mL	8
CCCCn1cc(O)c(=O)cc1C(=O)NN1CCN(S(=O)(=O)NC(=O)N2C[C@H](NC(=O)/C(=N\OC(C)(C)C(=O)O)c3csc(N)n3)C2=O)C1=O [E42 (b)]	µg/mL	0.5
CC(C)(O/N=C(\C(=O)N[C@H]1CN(C(=O)NS(=O)(=O)N2CCN(C(=O)c3cc(=O)c(O)c[nH]3)NC2=O)C1=O)c1csc(N)n1)C(=O)O [Compound E18]	µg/mL	0.5

[1] CC(C)(O/N=C(\C(=O)N[C@H]1CN(C(=O)NS(=O)(=O)N2CCN(C(=O)c3cc(=O)c(O)c[nH]3)CC2=O)C1=O)c1csc(N)n1)C(=O)O [Compound E17]
[2] Cn1c(-c2cc(=O)c(O)c[nH]2)nn(S(=O)(=O)NC(=O)N2C[C@H](NC(=O)/C(=N\OC(C)(C)C(=O)O)c3csc(N)n3)C2=O)c1=O [E23 (b)]
[3] Cn1cc(O)c(=O)cc1C(=O)NN1CCN(S(=O)(=O)NC(=O)N2C[C@H](NC(=O)/C(=N\OC(C)(C)C(=O)O)c3csc(N)n3)C2=O)C1=O [E42 (a)]
Given 3 compounds, produce a descending ranking by MIC. List each label, following the requested order.
3, 1, 2
